Below, each entry is listed with its recorded viability change.
- Test name: Nrf2 qHTS screen for inhibitors: Validation (AID 493153)
- Recorded conditions: A549 ARE-Fluc reporter, 18-24 h; measured here: cytotoxicity max response
Records with an inconclusive call do not appear.
Give just the number in %; leave the unit off.

Here's what some known entries look like.
{"Molecule": "O=C1C2C=CC=CC2=NC(=S)N1CCN1CCC(=C(c2ccc(F)cc2)c2ccc(F)cc2)CC1 (centres undefined)", "viability change, %": 6.28}
{"Molecule": "CN1CC(O)C(O)C(O)C1CO (centres undefined)", "viability change, %": 2.46}

Dear colleague, I am looking for the recorded viability change of the following molecule: COC(=O)C(N)Cc1ccc(Cl)cc1 (centres undefined)
9.57

====

- Test name: qHTS for differential inhibitors of proliferation of Plasmodium falciparum line 7G8 (AID 1815);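 note: parasite growth measured after three days of incubation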
- Recorded conditions: Plasmodium falciparum 7G8 proliferation inhibition; series mostly up to 28.7 µM
Inconclusive results are not listed. Calls of active or inactive are those of the source. Calls come from the whole dose curve; as a rule, active = well fitted curve in the direction sought with a large enough effect; inconclusive = small, poorly fitted or top-dose-only effect, or another doubt; inactive = no such curve, though single readings can be large or run the other way. Residues, ends and D or L forms follow the SMILES beside them. *: point of attachment. Cbz = O=C(OCc1ccccc1)*
Hi! Could you answer with just one of these? true (1) (active), false (0) (inactive)

A selection of reference data follows.
{"Molecule": "N#CC(=C(\\N)Sc1ccccc1N)/C(C#N)=C(/N)Sc1ccccc1N", "Class": "true (1)"}
{"Molecule": "COc1cccc(OC)c1OCCNCC1CSc2ccccc2O1 (stereo not drawn)", "Class": "true (1)"}
{"Molecule": "O=C(O)CCC(=O)N1CCCC1C(=O)O (stereo not drawn)", "Class": "false (0)"}
{"Molecule": "CCCN(CCc1ccccc1)C1CCc2c(O)cccc2C1 (stereo not drawn)", "Class": "true (1)"}
{"Molecule": "CC(C)[C@H](NC(=O)OCc1ccccc1)C(=O)N[C@H](C=O)Cc1ccccc1 (Cbz-Val-Phe-aldehyde)", "Class": "true (1)"}
{"Molecule": "NC(N)=NC(N)=Nc1ccccc1", "Class": "false (0)"}
{"Molecule": "O=C(O)/C=C/c1ccc(O)c(O)c1", "Class": "false (0)"}
{"Molecule": "OC[C@H]1NC[C@@H](O)[C@@H]1O", "Class": "false (0)"}

Write down the call the test reported for this molecule. Item: CC(=O)[C@H]1CCC2C3CC=C4C[C@@H](OS(=O)(=O)O)CC[C@]4(C)C3CC[C@@]21C (stereo partly drawn)
false (0)

Then COC(=O)[C@H](NC(=O)c1cc(-c2ccccc2)nc2ccccc12)c1ccccc1 ?
true (1)

Then C=CCN1CCc2c(cc(O)c(O)c2Cl)C(c2ccccc2)C1 (stereo not drawn) ?
true (1)

====

- Subject of test: N-terminal Xaa-Pro-Lys N-methyltransferase 1 (Homo sapiens) (UniProt Q9BV86)
- Sequence (Q9BV86 whole entry, looked up): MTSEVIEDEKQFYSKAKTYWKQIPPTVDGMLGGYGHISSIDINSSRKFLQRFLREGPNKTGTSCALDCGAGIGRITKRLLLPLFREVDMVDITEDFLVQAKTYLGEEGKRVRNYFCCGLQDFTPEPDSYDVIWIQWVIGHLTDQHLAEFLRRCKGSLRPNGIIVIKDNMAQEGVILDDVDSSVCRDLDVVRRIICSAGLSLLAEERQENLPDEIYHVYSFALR
- Test name: qHTS Assay for Inhibitors of N-terminal methyltransferase 1 (NTMT1): LOPAC validation of the NTMT1 SAHH-coupled ThioGlo3 Assay (AID 1347143);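 note: SAH from peptide methylation measured as thiol fluorescence via SAHH coupling and ThioGlo3; nearly all actives have a fitted effect of over 70% in size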
- Recorded conditions: recombinant NTMT1, SAHH-coupled ThioGlo3 fluorescence; series mostly up to 114 µM
Records with an inconclusive call do not appear. Activity calls are given as the source filed them. Calls follow the shape of the dose curve; as a rule, active = well fitted inhibition curve with a large enough effect; inconclusive = small, poorly fitted or top-dose-only effect; inactive = no such curve, though single readings can be large or run the other way.
Hi! Could you answer with just one of these? active, inactive

{"Compound": "NC(=O)CC[C@H](N)C(=O)O", "Class": "inactive"}
{"Compound": "CC(C)C[C@H](NC(=O)[C@H](O)[C@H](N)Cc1ccccc1)C(=O)O", "Class": "inactive"}
{"Compound": "O=c1[nH]ccc2c(O)cccc12", "Class": "active"}
{"Compound": "[Li+]", "Class": "inactive"}
{"Compound": "COc1ccc(C(=O)NCc2cccnc2)cc1C(=O)NCc1cccnc1", "Class": "inactive"}

Write down the call the test reported for this compound. Item: CN(C)S(=O)(=O)c1ccc2c(c1)/C(=C/c1cc3c([nH]1)CCCC3)C(=O)N2
inactive

Then c1ccc(CN2CCC3(CCCc4ccccc43)CC2)cc1 ?
active

Then NC1(C(=O)O)CC1 ?
inactive

Then O=C(O)C1=CC(=C(c2ccc(O)c(C(=O)O)c2)c2ccc(O)c(C(=O)O)c2)C=CC1=O ?
active

Then Cc1nc(N=Nc2ccc(C(=O)O)cc2)c(COP(=O)(O)O)c(C=O)c1O ?
inactive

Then N[C@H]1CONC1=O ?
inactive

Then C=CCNc1ncnc2ccc(Br)cc12 ?
inactive

Then N=C(N)c1ccc(OCCCCCOc2ccc(C(=N)N)cc2)cc1 (tested in a mixture with another compound) ?
active

Then C=CCN1CCc2c(cc(O)c(O)c2Cl)C(c2ccccc2)C1 (configuration not stated) ?
active

Then CC#CCOC(=O)c1c(C)nc2sc3c(c2c1N)CCC(O)C3 (configuration not stated) ?
active

Then O=C1C2C=CC=CC2=NC(=S)N1CCN1CCC(=C(c2ccc(F)cc2)c2ccc(F)cc2)CC1 (configuration not stated) ?
inactive

Then [N-]=[N+]=Nc1ccc(C(=O)CSC[C@H](NC(=O)CC[C@H](N)C(=O)O)C(=O)NCC(=O)O)cc1 ?
inactive

====

- Subject of test: D(1A) dopamine receptor (Homo sapiens)
- Test name: HTS Assay for Allosteric Agonists of the Human D1 Dopamine Receptor: Primary Screen for Agonists (AID 488981); note: potency is the fitted concentration of half-maximal effect; for activation: 0% is about no effect
- Recorded conditions: Inducible HEK293 T-REx D1 cells, calcium-flux fluorescence, 180 s kinetic; series mostly up to 41.8 µM
Results filed as inconclusive are left out. Activity calls are given as the source filed them. The call rests on the fitted dose curve; in most records, active means well fitted activation curve with a large enough effect; inconclusive means small, poorly fitted or top-dose-only effect; inactive means flat fitted curve, though single readings scatter.
Measure name: Potency

Here's what some known entries look like.
{"Molecule": "CC1C(=O)N(C)C(=O)c2nc[nH]c21 (configuration not stated)", "Assay value": "inactive"}
{"Molecule": "c1ccc(C2CN3CCSC3=N2)cc1 (configuration not stated)", "Assay value": "inactive"}
{"Molecule": "COc1cc(/C=C(\\C#N)C(=O)c2ccc(O)c(O)c2)cc(I)c1O", "Assay value": "14.1 µM (active)"}
{"Molecule": "Oc1ccc(Cn2cc[nH]c2=S)cc1", "Assay value": "inactive"}
{"Molecule": "Nc1ccc(-c2nc3ccc(-c4nc5ccc(N)cc5[nH]4)cc3[nH]2)cc1", "Assay value": "inactive"}

Dear colleague, I am looking for the recorded Potency of the following molecule: Cn1c(=O)c2c(nc(/C=C/c3cccc(Cl)c3)n2C)n(C)c1=O
inactive

====

- Test name: qHTS for differential inhibitors of proliferation of Plasmodium falciparum line D10 (AID 1877);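 note: parasites grown with compound for 72 h before DNA staining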; note: potency is the fitted concentration of half-maximal effect
- Recorded conditions: series mostly up to 28.7 µM
Records with an inconclusive call do not appear. The source made the active and inactive calls. The call rests on the fitted dose curve; in most records, active means well fitted curve in the direction sought with a large enough effect; inconclusive means small, poorly fitted or top-dose-only effect, or another doubt; inactive means no such curve, though single readings can be large or run the other way.
Measure name: Potency

{"Compound": "NC(C(=O)N[C@@H]1C(=O)N2C(C(=O)O)=C(Cl)CS[C@H]12)c1ccccc1 (stereo partly drawn)", "Measure name": "Potency", "Assay value": "inactive"}
{"Compound": "Cn1cc(C(F)(F)F)nc1-c1ccc(OCC(O)CNCCOc2ccc(O)c(C(N)=O)c2)cc1 (stereo not drawn)", "Measure name": "Potency", "Assay value": "3.16 µM (active)"}
{"Compound": "NC1C=CC=C(C(=O)O)C1 (stereo not drawn)", "Measure name": "Potency", "Assay value": "inactive"}

====

- Subject of test: Parathyroid hormone/parathyroid hormone-related peptide receptor (Homo sapiens) (UniProt Q03431)
- Sequence (Q03431 whole entry, looked up): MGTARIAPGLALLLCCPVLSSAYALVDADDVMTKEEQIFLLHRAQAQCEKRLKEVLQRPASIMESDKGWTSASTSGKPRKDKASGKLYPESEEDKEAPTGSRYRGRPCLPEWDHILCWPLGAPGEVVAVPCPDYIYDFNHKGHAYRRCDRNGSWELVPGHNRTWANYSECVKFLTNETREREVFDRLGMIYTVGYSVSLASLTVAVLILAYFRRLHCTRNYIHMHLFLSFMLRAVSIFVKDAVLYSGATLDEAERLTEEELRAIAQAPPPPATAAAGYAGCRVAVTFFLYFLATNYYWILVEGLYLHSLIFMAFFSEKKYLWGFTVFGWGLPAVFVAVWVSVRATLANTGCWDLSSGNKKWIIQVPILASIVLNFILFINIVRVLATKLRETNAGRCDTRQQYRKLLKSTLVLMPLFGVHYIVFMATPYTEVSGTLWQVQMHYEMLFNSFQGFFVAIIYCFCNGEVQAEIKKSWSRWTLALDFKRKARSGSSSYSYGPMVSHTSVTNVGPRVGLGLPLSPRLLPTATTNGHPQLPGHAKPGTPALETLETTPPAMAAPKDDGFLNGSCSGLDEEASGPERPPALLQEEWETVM
- Test name: qHTS for PTHR1 Agonists: Optimization Screen against the NCGC LOPAC library (AID 1347079);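 note: GloSensor cAMP luminescence in HEK-293 GP2 cells expressing human PTHR1 with IBMX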; for activation: 0% is about no effect
- Recorded conditions: HEK293 GP2 PTHR1 GloSensor cAMP luminescence, 1 h; series mostly up to 57.1 µM
Active and inactive are the calls of the source. The call rests on the fitted dose curve; in most records, active means well fitted activation curve with a large enough effect; inconclusive means small, poorly fitted or top-dose-only effect; inactive means no such curve, though single readings can be large or run the other way.
Hi! Could you answer with just one of these? active, inactive

A selection of reference data follows.
{"Compound": "Nc1ncnc2c1c(-c1ccc(Oc3ccccc3)cc1)cn2C1CCCC1", "Class": "inactive"}
{"Compound": "CN1C2CCC1CC(OC(c1ccccc1)c1ccccc1)C2 (configuration not stated)", "Class": "inactive"}
{"Compound": "O=C1OC(=O)C2C3CCC(O3)C12 (configuration not stated)", "Class": "inactive"}
{"Compound": "CC[C@H](NC(=O)c1c(C)c(-c2ccccc2)nc2ccccc12)c1ccccc1", "Class": "inactive"}
{"Compound": "O=C(O)c1cc2cc(F)ccc2[nH]1", "Class": "inactive"}
{"Compound": "CCCn1c(=O)c2[nH]c(C3CCCC3)nc2n(CCC)c1=O", "Class": "inactive"}
{"Compound": "C=CC1(C)CC(=O)C2(O)C(C)(O1)C(OC(C)=O)C(O)C1C(C)(C)CCC(O)C12C (configuration not stated)", "Class": "active"}
{"Compound": "O=C(N[C@@H](Cc1ccccc1)C(=O)CCl)OCc1ccccc1", "Class": "inactive"}
{"Compound": "CN1CCCC1CCOC(C)(c1ccccc1)c1ccc(Cl)cc1 (configuration not stated)", "Class": "inactive"}
{"Compound": "Nc1ccc2c3c(cccc13)C(=O)NC2=O", "Class": "inactive"}

Write down the call the test reported for this compound. Item: CCCCCCN(CCCCCC)C(=O)Cc1c(-c2ccc(F)cc2)[nH]c2ccccc12
inactive

Then COc1ccc2c(c1)CCC1C2CC[C@@]2(C)C1CC[C@@H]2NCCCCCCN1C(=O)C=CC1=O (some centres not stated) ?
inactive

Then NC(C(=O)N[C@@H]1C(=O)N2C(C(=O)O)=C(Cl)CS[C@H]12)c1ccccc1 (some centres not stated) ?
inactive

Then N=C(N)c1ccccc1 ?
inactive

Then N#C/C(=C\c1ccc(O)c(O)c1)C(=O)NCCCNC(=O)/C(C#N)=C/c1ccc(O)c(O)c1 ?
inactive

Then COc1cc(/C=C(\C#N)C(=O)Nc2nnc(C(F)(F)F)s2)ccc1OCc1ccc(C(F)(F)F)cc1C(F)(F)F ?
inactive

Then C=CCNc1ncnc2ccc(Br)cc12 ?
inactive
